- Test Details: Toxicity in ip dosed albino mouse
- Format: organism-based
- Condition Set: in vivo, read-out: ALD50

Item Smiles | LD50
COc1ccc2nc3ccccc3c(N3N=C(CSc4nnc(-c5ccncc5)o4)CC3=O)c2c1 | > 1000 mg/kg
CC1=NN(c2c3ccccc3nc3ccc(Br)cc23)C(=O)C1 | > 1000 mg/kg
CC1=NN(c2c3ccccc3nc3c(Cl)cc(Cl)cc23)C(=O)C1 | > 1000 mg/kg
COc1ccc2nc3ccccc3c(N3N=C(C)CC3=O)c2c1 | > 1000 mg/kg
O=C1CC(CSc2nnc(-c3ccncc3)o2)=NN1c1c2ccccc2nc2c(Cl)cc(Cl)cc12 | > 1000 mg/kg
O=C1CC(CSc2nnc(-c3ccncc3)o2)=NN1c1c2ccccc2nc2ccccc12 | > 1000 mg/kg
